All figures here come from PubChem BioAssay (NCI).

Test system: DU-145 prostate
Method Summary: NCI-60 one-dose screen, 48 h (100 = growth as untreated, 0 = no growth, -100 = all killed)
Condition Context: 10 µM unless noted
Method: Cells are grown in 96 well plates and exposed to the test compound for 48 hours. Compounds are tested at a single concentration, which is 10^-5 M for most compounds. The reported endpoint is percent growth (GI% or GIPRCNT), where numbers from 0 - 100% represent growth inhibition, and numbers from -100% - 0 represent cell death. For example, a value of 40 represents 60% growth inhibition. A value of 0 means no net growth occurred over the course of the experiment. […]
About 83,000 compounds went through this panel and 20% of them were active in at least one assay; those are over-represented in the sample as a whole. The source made the active and inactive calls. How the source made its calls: active means growth percent below 10; inactive means the rest.
For each of the molecules below, state its growth.

Look up growth for this molecule: `Cc1cn(-c2nc3c(c(NCc4ccccc4)n2)COCC3)c2cccc(C(N)=O)c12`
87.6% [0.5 µM] (inactive)

What do we get for N#Cc1c(N)nc2c(c1N)C(c1ccc(Cl)cc1)C1=C(CCCC1=O)N2c1sc2c(c1C#N)CCCC2 (centres undefined) ?
99.7% (inactive)

What do we get for `COC(=O)c1ccc(NC(N)=NCC(C)(C)COc2ccc(C(F)(F)F)cc2)nc1` ?
68.8% (inactive)

What do we get for `COc1ccc(Cl)cc1NC(=O)c1cc2c(n1C)-c1nc(NC(=O)C(C)(C)C)sc1CC2` ?
98.6% (inactive)

What do we get for `COc1ccc(-c2nnc(NC(=O)CN3CCN(c4cc5c(cc4F)c(=O)c(C(=O)O)cn5C4CC4)CC3)s2)cc1OC` ?
113% (inactive)

What do we get for `Nc1nc(Cl)cc(NCc2ccc(CNc3cc(Cl)nc(N)n3)cc2)n1` ?
96.4% (inactive)

What do we get for `Cc1ccc[n+](CC(=O)c2cccc3ccccc23)c1` ?
115% (inactive)

What do we get for `Cc1[nH]n(C(=O)c2ccncc2)c(=O)c1N=Nc1ccc(S(=O)(=O)Nc2ccncn2)cc1` ?
126% (inactive)

What do we get for `COC(=O)c1oc2c(C(C)=O)c(OCCN3CCCCC3)ccc2c1C` ?
117% (inactive)
